# Assay Overview: Half life in dog at 1 mg/kg, iv
# Format: ADME, organism-based, Canis lupus familiaris
# Experimental Setup: in vivo
Metric Name: half-life (h)
The reply should be a number in h, with the unit left off.

Task item: Query: half-life; subject: C[C@@](O)(CS(C)(=O)=O)C(=O)N[C@@H]1CC[C@@]2(S(=O)(=O)c3ccc(F)cc3)c3ccc(C(F)(C(F)(F)F)C(F)(F)F)nc3CC[C@@H]12
Reply: 67

###

# Assay Overview: Oral bioavailability in cynomolgus monkey at 2 mg/kg
# Assay type: ADME, organism-based, Macaca fascicularis
# Experimental Setup: in vivo
Metric Name: bioavailability (%)
The reply should be a number in %, with the unit left off.

Task item: Query: bioavailability; subject: C[C@@](O)(CS(C)(=O)=O)C(=O)N[C@@H]1CC[C@@]2(S(=O)(=O)c3ccc(F)cc3)c3ccc(C(F)(C(F)(F)F)C(F)(F)F)nc3CC[C@@H]12
Reply: 73
